These entries and their values trace back to ChEMBL document CHEMBL3351749.

- Test system: Candida albicans
- Experimental Details: Antimicrobial activity against Candida albicans CGMCC2.2086 after 48 hrs by modified microdilution method
- Assay type: functional
- Details: CGMCC2.2086, 48 h
The entries below are paired with their reported MIC.

- Smiles: "COC(=O)[C@]12CC[C@@H](C)[C@H](C)[C@H]1C1=CC[C@@H]3[C@@]4(C)Cc5c([nH]c6ccc(OC)cc56)C(C)(C)[C@@H]4CC[C@@]3(C)[C@]1(C)CC2"
  Study Target: "Candida albicans"
  MIC: "> 100 µg/mL"
- Smiles: "C[C@H]1[C@H](C)CC[C@]2(C(=O)O)CC[C@]3(C)C(=CC[C@@H]4[C@@]5(C)Cc6c([nH]c7ccc(Cl)cc67)C(C)(C)[C@@H]5CC[C@]43C)[C@H]12"
  Study Target: "Candida albicans"
  MIC: "> 100 µg/mL"
- Smiles: "C[C@H]1[C@H](C)CC[C@]2(C(=O)O)CC[C@]3(C)C(=CC[C@@H]4[C@@]5(C)Cc6c([nH]c7ccccc67)C(C)(C)[C@@H]5CC[C@]43C)[C@H]12"
  Study Target: "Candida albicans"
  MIC: "> 100 µg/mL"

====

- Tested on: Bacillus subtilis
- Experimental Details: Antimicrobial activity against Bacillus subtilis CGMCC1.1162 after 24 hrs by modified microdilution method
- Type: functional
- Details: CGMCC1.1162, 24 h
The entries below are paired with their reported MIC.

- Smiles: "C[C@H]1[C@H](C)CC[C@]2(C(=O)O)CC[C@]3(C)C(=CC[C@@H]4[C@@]5(C)Cc6c([nH]c7ccc(F)cc67)C(C)(C)[C@@H]5CC[C@]43C)[C@H]12"
  Study Target: "Bacillus subtilis"
  MIC, µg/mL: 15.6
- Smiles: "COC(=O)[C@]12CC[C@@H](C)[C@H](C)[C@H]1C1=CC[C@@H]3[C@@]4(C)Cc5c([nH]c6c(OC)cccc56)C(C)(C)[C@@H]4CC[C@@]3(C)[C@]1(C)CC2"
  Study Target: "Bacillus subtilis"
  MIC, µg/mL: 31.2
- Smiles: "C[C@H]1[C@H](C)CC[C@]2(C(=O)O)CC[C@]3(C)C(=CC[C@@H]4[C@@]5(C)Cc6c([nH]c7ccc(Cl)cc67)C(C)(C)[C@@H]5CC[C@]43C)[C@H]12"
  Study Target: "Bacillus subtilis"
  MIC, µg/mL: 31.2
- Smiles: "COc1cccc2c3c([nH]c12)C(C)(C)[C@@H]1CC[C@]2(C)[C@H](CC=C4[C@@H]5[C@@H](C)[C@H](C)CC[C@]5(C(=O)O)CC[C@]42C)[C@@]1(C)C3"
  Study Target: "Bacillus subtilis"
  MIC, µg/mL: 62.5

====

- System: Candida albicans
- Experimental Details: Antimicrobial activity against Candida albicans CGMCC2.2086 after 48 hrs by modified microdilution method
- Assay type: functional
- Details: CGMCC2.2086, 48 h

- Smiles: "C[C@H]1[C@H](C)CC[C@]2(C(=O)NCCCN(C)C)CC[C@]3(C)C(=CC[C@@H]4[C@@]5(C)Cc6c([nH]c7ccc(Cl)cc67)C(C)(C)[C@@H]5CC[C@]43C)[C@H]12"
  MIC: "62.5 µg/mL"
- Smiles: "COC(=O)[C@]12CC[C@@H](C)[C@H](C)[C@H]1C1=CC[C@@H]3[C@@]4(C)Cc5c([nH]c6ccccc56)C(C)(C)[C@@H]4CC[C@@]3(C)[C@]1(C)CC2"
  MIC: "62.5 µg/mL"
- Smiles: "C[C@H]1[C@H](C)CC[C@]2(C(=O)O)CC[C@]3(C)C(=CC[C@@H]4[C@@]5(C)CCC(=O)C(C)(C)[C@@H]5CC[C@]43C)[C@H]12"
  MIC: "> 100 µg/mL"
- Smiles: "C[C@H]1[C@H](C)CC[C@]2(C(=O)O)CC[C@]3(C)C(=CC[C@@H]4[C@@]5(C)Cc6c([nH]c7ccc(F)cc67)C(C)(C)[C@@H]5CC[C@]43C)[C@H]12"
  MIC: "62.5 µg/mL"
- Smiles: "CCOc1ccc2[nH]c3c(c2c1)C[C@]1(C)[C@H]2CC=C4[C@@H]5[C@@H](C)[C@H](C)CC[C@]5(C(=O)OC)CC[C@@]4(C)[C@]2(C)CC[C@H]1C3(C)C"
  MIC: "> 100 µg/mL"
- Smiles: "Cc1ccc2[nH]c3c(c2c1)C[C@]1(C)[C@H]2CC=C4[C@@H]5[C@@H](C)[C@H](C)CC[C@]5(C(=O)NCCCN(C)C)CC[C@@]4(C)[C@]2(C)CC[C@H]1C3(C)C"
  MIC: "> 100 µg/mL"
- Smiles: "C[C@H]1[C@H](C)CC[C@]2(C(=O)NCCCN(C)C)CC[C@]3(C)C(=CC[C@@H]4[C@@]5(C)Cc6c([nH]c7ccc(Br)cc67)C(C)(C)[C@@H]5CC[C@]43C)[C@H]12"
  MIC: "> 100 µg/mL"
- Smiles: "COc1cccc2c3c([nH]c12)C(C)(C)[C@@H]1CC[C@]2(C)[C@H](CC=C4[C@@H]5[C@@H](C)[C@H](C)CC[C@]5(C(=O)O)CC[C@]42C)[C@@]1(C)C3"
  MIC: "> 100 µg/mL"
